- Tested on: SH-SY5Y
- assay_notes: Inhibition of Fe3+-mediated ROS generation in human SH-SY5Y cells expressing APPswe mutant at 1 uM after 72 hrs by DCF-DA dye-based fluorescence spectroscopic analysis
- Assay type: cell-based
Calls of active or inactive are those of the source. No cut-off for these calls is given here.
The reply should be one of these categories: 1 for active, -1 for inactive

Some solved entries appear below for comparison.
compound	measured_target	label_class
Cc1ncc(CO)c(/C=N/NC(=O)c2ccc(NC(=O)CC[C@@H](C)[C@H]3CC[C@H]4[C@@H]5[C@H](O)C[C@@H]6C[C@H](O)CC[C@]6(C)[C@H]5C[C@H](O)[C@]34C)cc2)c1O (stereo in doubt)	SH-SY5Y	-1
Cc1ncc(CO)c(/C=N/NC(=O)CC[C@@H](C)[C@H]2CC[C@H]3[C@@H]4[C@H](O)C[C@@H]5C[C@H](O)CC[C@]5(C)[C@H]4C[C@H](O)[C@]23C)c1O	SH-SY5Y	1
C[C@H](CCC(=O)N/N=C/c1ccc(C(C)(C)C)cc1O)[C@H]1CC[C@H]2[C@@H]3[C@H](O)C[C@@H]4C[C@H](O)CC[C@]4(C)[C@H]3C[C@H](O)[C@]12C	SH-SY5Y	1
CCN1/C(=C/c2c(NN=C(c3ccccn3)c3ccccn3)c(=O)c2=O)Sc2ccccc21	SH-SY5Y	1
COc1ccc(Nc2c(N/N=C/c3ccc4ccccc4n3)c(=O)c2=O)cc1	SH-SY5Y	-1

[in] Assay outcome for COc1ccc(Nc2c(N/N=C/c3cccc(OC)c3O)c(=O)c2=O)cc1 : what was it?
[out] -1

[in] Assay outcome for CCN1/C(=C/c2c(N/N=C/c3cc(C(C)(C)C)ccc3O)c(=O)c2=O)Sc2ccccc21 : what was it?
[out] -1

Provenance of the data: ChEMBL document CHEMBL4196074
